Each recorded value in this set is attributed to patent US20250090541A1.

experiment: Oral pharmacokinetics and tissue distribution of PTG-630 (blood brain barrier penetration); type: in vivo, Sprague-Dawley rats; conditions: male, Sprague-Dawley, rat; Sciatic Nerve, 4.0 h, PO, mean

# test-smiles, concentration at 4 h, ng/mL
data = [
    ("Cc1ncc(CN2CCOCC2)c(-c2ncc[nH]2)c1O", 989),
]

###

experiment: Oral pharmacokinetics and tissue distribution of PTG-630 (blood brain barrier penetration); assay type: in vivo, Sprague-Dawley rats; parameters: concentration or dose not given beside the values; details: male, Sprague-Dawley, rat, muscle, po

# compound, AUC(0-t)
rows = [
    ("Cc1ncc(CN2CCOCC2)c(-c2ncc[nH]2)c1O [PTG-630]", "2650 ng·h/mL"),
]

###

test: Oral pharmacokinetics and tissue distribution of PTG-630 (blood brain barrier penetration); format: in vivo, Sprague-Dawley rats; design: concentration or dose not given beside the values; conditions: male, Sprague-Dawley, rat, brain, po
quantity-kind: AUC(0-inf)

# test-smiles, reported-value
records = [
    ("Cc1ncc(CN2CCOCC2)c(-c2ncc[nH]2)c1O", "6720 ng·h/mL"),
]

###

assay: Oral pharmacokinetics and tissue distribution of PTG-630 (blood brain barrier penetration); assay type: in vivo, Sprague-Dawley rats; conditions: male, Sprague-Dawley, rat; Plasma, 1.0 h, PO, mean

# compound, concentration at 1 h [ng/mL]
rows = [
    ("Cc1ncc(CN2CCOCC2)c(-c2ncc[nH]2)c1O [PTG-630]", 1160),
]

###

assay: Oral pharmacokinetics and tissue distribution of PTG-630 (blood brain barrier penetration); format: in vivo, Sprague-Dawley rats; set-up: concentration or dose not given beside the values; details: male, Sprague-Dawley, rat, plasma, po

# test-smiles, readout-unit, AUC(0-inf)
rows = [
    ("Cc1ncc(CN2CCOCC2)c(-c2ncc[nH]2)c1O", "ng·h/mL", 8700),
]

###

Experiment: Oral pharmacokinetics and tissue distribution of PTG-630 (blood brain barrier penetration)
Assay type: in vivo, Sprague-Dawley rats
Details: male, Sprague-Dawley, rat; Plasma, 0.50 h, PO, mean
Description: This was a study in male Sprague-Dawley rats. The primary objective was to assess the IV and PO pharmacokinetics of PTG-630. […] Twelve non-cannulated animals were arbitrarily assigned to groups upon arrival and housed together throughout the experiment. […] Tissues samples were analyzed for concentration of PTG-630.
quantity-kind: concentration at 0.5 h

# molecule, reported-value
records = [
    ("Cc1ncc(CN2CCOCC2)c(-c2ncc[nH]2)c1O [PTG-630]", "930 ng/mL"),
]

###

experiment: Oral pharmacokinetics and tissue distribution of PTG-630 (blood brain barrier penetration); assay type: in vivo, Sprague-Dawley rats; settings: male, Sprague-Dawley, rat; Kidney, 0.50 h, PO, mean

# compound, concentration at 0.5 h (ng/mL)
rows = [
    ("Cc1ncc(CN2CCOCC2)c(-c2ncc[nH]2)c1O [PTG-630]", 2230),
]

###

assay: Oral pharmacokinetics and tissue distribution of PTG-630 (blood brain barrier penetration); type: in vivo, Sprague-Dawley rats; details: male, Sprague-Dawley, rat; Kidney, 6.0 h, PO, mean

# test-smiles, readout-unit, concentration at 6 h
rows = [
    ("Cc1ncc(CN2CCOCC2)c(-c2ncc[nH]2)c1O", "ng/mL", 466),
]

###

test: Oral pharmacokinetics and tissue distribution of PTG-630 (blood brain barrier penetration); assay type: in vivo, Sprague-Dawley rats; conditions: male, Sprague-Dawley, rat; Muscle, 4.0 h, PO, mean
quantity-kind: concentration at 4 h (ng/mL)

# test-smiles, readout-unit, reported-value
data = [
    ("Cc1ncc(CN2CCOCC2)c(-c2ncc[nH]2)c1O", "ng/mL", 401),
]
